inhibition at 0.1 µM values by entry
- assayed-target: rat adrenergic α1B receptor (Rattus norvegicus, UniProt P15823)
- Construct: rat adrenergic α1B receptor obtained from Wistar Rat liver; from tissue; host or cells: Wistar rat liver
- Sequence (P15823 whole entry): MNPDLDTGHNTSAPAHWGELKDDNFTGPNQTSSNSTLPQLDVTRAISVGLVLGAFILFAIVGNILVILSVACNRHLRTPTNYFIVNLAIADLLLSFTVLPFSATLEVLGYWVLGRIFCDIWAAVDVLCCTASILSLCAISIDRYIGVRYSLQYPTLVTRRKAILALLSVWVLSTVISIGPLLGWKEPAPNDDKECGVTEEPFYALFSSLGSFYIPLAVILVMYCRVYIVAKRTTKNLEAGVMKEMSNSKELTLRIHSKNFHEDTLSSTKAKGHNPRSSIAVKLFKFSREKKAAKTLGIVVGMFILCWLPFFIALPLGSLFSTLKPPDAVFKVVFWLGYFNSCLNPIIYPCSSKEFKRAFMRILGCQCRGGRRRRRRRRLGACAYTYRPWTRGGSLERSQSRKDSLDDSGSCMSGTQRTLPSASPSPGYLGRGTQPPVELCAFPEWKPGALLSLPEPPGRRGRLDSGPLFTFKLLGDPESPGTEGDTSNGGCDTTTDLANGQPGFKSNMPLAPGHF
- test-method-notes: Radioligand binding, adrenergic α1B ([3H]Prazosin)
- condition-set: 0.1 μM compound; read-out: Percentage inhibition of ligand binding, Adrenergic α1B
experimental-endpoint: inhibition at 0.1 µM (%)

>  <compound>
C/C(=C\n1c2c(c3cc(C)ccc31)CN(C)CC2)c1ccccn1

>  <assayed-target>
rat adrenergic α1B receptor (Rattus norvegicus, UniProt P15823)

>  <reported>
71

$$$$
>  <compound>
C/C(=C\n1c2c(c3cc(Cl)ccc31)CCN(C)CC2)c1cccc(F)c1

>  <assayed-target>
rat adrenergic α1B receptor (Rattus norvegicus, UniProt P15823)

>  <reported>
76

$$$$
>  <compound>
OC(Cn1c2c(c3cc(Cl)cnc31)CN1CCCC1C2)c1ccncc1 (centres unmarked)

>  <assayed-target>
rat adrenergic α1B receptor (Rattus norvegicus, UniProt P15823)

>  <reported>
44

$$$$
>  <compound>
OC(Cn1c2c(c3cc(Cl)ccc31)CNCC2)c1cccnc1 (centres unmarked)

>  <assayed-target>
rat adrenergic α1B receptor (Rattus norvegicus, UniProt P15823)

>  <reported>
13

$$$$
>  <compound>
Cc1ccc2c(c1)c1c(n2CCc2ccc(C)nc2)C(c2ccccc2)N(C)CC1 (centres unmarked)

>  <assayed-target>
rat adrenergic α1B receptor (Rattus norvegicus, UniProt P15823)

>  <reported>
92

$$$$

----------
- assayed-target: human recombinant adrenergic α2B receptor (Homo sapiens, UniProt P18089)
- Construct: expressed in transfected cells; host or cells: CHO-K1
- Sequence (P18089 1-450): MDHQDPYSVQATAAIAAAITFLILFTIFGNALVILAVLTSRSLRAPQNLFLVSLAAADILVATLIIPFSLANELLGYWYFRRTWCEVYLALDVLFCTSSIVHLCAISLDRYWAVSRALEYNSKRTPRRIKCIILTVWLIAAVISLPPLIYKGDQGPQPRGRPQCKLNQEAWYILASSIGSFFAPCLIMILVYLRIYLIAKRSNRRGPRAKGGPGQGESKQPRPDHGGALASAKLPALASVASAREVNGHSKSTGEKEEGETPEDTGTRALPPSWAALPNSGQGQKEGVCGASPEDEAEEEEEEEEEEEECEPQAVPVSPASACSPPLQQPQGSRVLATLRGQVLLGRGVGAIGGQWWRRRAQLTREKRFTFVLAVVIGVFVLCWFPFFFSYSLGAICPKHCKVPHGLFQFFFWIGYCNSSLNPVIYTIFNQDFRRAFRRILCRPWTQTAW
- test-method-notes: Radioligand binding, adrenergic α2B ([3H]Rauwolscine)
- condition-set: read-out: Ki α2B
The entries below come with measured Ki values attached.
experimental-endpoint: Ki (nM)

>  <compound>
Cc1ccc2c(c1)c1c(n2CC(C)(O)c2ccc(C)nc2)CCN(C)C1 (single isomer, unassigned) [29a]

>  <reported>
1.09

$$$$
>  <compound>
Cc1ccc2c(c1)c1c(n2CCc2ccc(C)nc2)CCN2CCCC12 (single isomer, unassigned) [197b]

>  <reported>
0.78

$$$$
>  <compound>
Cc1ccc2c(c1)c1c(n2CC(O)c2ccncc2)CCNC1 (single isomer, unassigned) [39a]

>  <reported>
2.5

$$$$
>  <compound>
Cc1ccc2c(c1)c1c(n2CC(C)(O)c2cccnc2)CC[N+](C)([O-])C1 (centres unmarked) [II-105]

>  <reported>
152

$$$$
>  <compound>
CN1CCc2c(c3cc(Cl)ccc3n2CC(C)(O)c2cccnc2)C1 (single isomer, unassigned) [31a]

>  <reported>
1.58

$$$$
>  <compound>
Cc1ccc2c(c1)c1c(n2CC(C)(O)c2ccc(C)nc2)CN(C)CC1 (single isomer, unassigned) [196a]

>  <reported>
1.83

$$$$
>  <compound>
C/C(=C\n1c2c(c3cc(Cl)ccc31)CN(C)CC2)c1ccncc1 [compound 185]

>  <reported>
3.8

$$$$
>  <compound>
Cc1ccc2c(c1)c1c(n2CC(O)c2ccc(F)cc2)CCN(C)C1 (single isomer, unassigned) [30b]

>  <reported>
1.13

$$$$
>  <compound>
Cc1ccc2c(c1)c1c(n2C2=C(c3ccc(C)s3)CCC2)CCN(C)C1 [compound 190]

>  <reported>
2.26

$$$$
>  <compound>
Cc1ccc2c(c1)c1c(n2CC(O)c2ccc(C(N)=O)cc2)CCN(C)C1 (single isomer, unassigned) [139a]

>  <reported>
2.36

$$$$
>  <compound>
CCc1ccc(CCn2c3c(c4cc(C)ccc42)CN(C)CC3)cn1 [compound 89]

>  <reported>
32

$$$$
